Source: the kinase profiling compilation of Christmann-Franck et al. (2016)

Please respond with reported kinase still bound, per cent of control for every item in the list.
- target-or-test-system: RPS6KA2 KD2 (human)
- protocol-summary: KINOMEscan competition binding
- test-conditions: compound 10.0 µM
Express your answer as a number followed by its unit.

>>> df
                              line_notation                       measured_parameter  assay_result
0  Cn1cc(C2=C(c3ccc(Cl)cc3Cl)C(=O)NC2=O)c2ccccc21  kinase still bound, per cent of control           78%
1  O=C1Nc2cc(Br)ccc2/C1=C1/Nc2ccccc2/C1=N\O  kinase still bound, per cent of control           79%
2  COc1ccc(CNC(=O)Nc2ncc([N+](=O)[O-])s2)cc1  kinase still bound, per cent of control           83%

# input for lookup
query: // query kinase still bound, per cent of control value for entry Cc1cnc(-c2cnc(NCCNc3ccc(C#N)cn3)nc2-c2ccc(Cl)cc2Cl)[nH]1
result: 100%

* * *

- target-or-test-system: ITK (human) (UniProt Q08881)
- Sequence (Q08881 whole entry, looked up): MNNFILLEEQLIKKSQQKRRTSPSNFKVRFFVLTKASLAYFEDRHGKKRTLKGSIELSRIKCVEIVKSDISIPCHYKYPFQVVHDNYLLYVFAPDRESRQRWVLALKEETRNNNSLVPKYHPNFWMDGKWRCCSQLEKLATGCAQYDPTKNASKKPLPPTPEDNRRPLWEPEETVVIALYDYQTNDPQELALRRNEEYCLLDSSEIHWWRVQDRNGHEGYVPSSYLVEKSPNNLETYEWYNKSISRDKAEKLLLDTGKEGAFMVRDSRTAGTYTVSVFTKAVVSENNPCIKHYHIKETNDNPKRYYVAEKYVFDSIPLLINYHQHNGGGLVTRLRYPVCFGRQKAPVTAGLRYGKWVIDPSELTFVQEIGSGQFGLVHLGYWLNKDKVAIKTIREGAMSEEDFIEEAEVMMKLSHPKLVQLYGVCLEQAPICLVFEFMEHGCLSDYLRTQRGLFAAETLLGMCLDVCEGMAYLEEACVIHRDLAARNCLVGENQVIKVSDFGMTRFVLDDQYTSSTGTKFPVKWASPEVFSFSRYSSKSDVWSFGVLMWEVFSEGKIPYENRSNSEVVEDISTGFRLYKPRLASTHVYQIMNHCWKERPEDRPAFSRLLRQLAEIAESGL
- protocol-summary: KINOMEscan competition binding
- test-conditions: compound 10.0 µM
Please respond with reported kinase still bound, per cent of control for every item in the list.
One number for each entry, in %.

// solved cases for kinase still bound, per cent of control follow
In [3]: df
Out[3]:
                              line_notation         target_or_test_system                       measured_parameter  assay_result
0  COc1ccc(CNC(=O)Nc2ncc([N+](=O)[O-])s2)cc1  ITK (human) (UniProt Q08881)  kinase still bound, per cent of control            95
1  Cc1cnc(-c2cnc(NCCNc3ccc(C#N)cn3)nc2-c2ccc(Cl)cc2Cl)[nH]1  ITK (human) (UniProt Q08881)  kinase still bound, per cent of control           100
2  O=C1Nc2cc(Br)ccc2/C1=C1/Nc2ccccc2/C1=N\O  ITK (human) (UniProt Q08881)  kinase still bound, per cent of control            11

query: // query kinase still bound, per cent of control value for entry Cn1cc(C2=C(c3ccc(Cl)cc3Cl)C(=O)NC2=O)c2ccccc21
result: 100

* * *

- Test system: PIK3CA (human), P42336 [C420R]
- Sequence (P42336 whole entry C420R, looked up): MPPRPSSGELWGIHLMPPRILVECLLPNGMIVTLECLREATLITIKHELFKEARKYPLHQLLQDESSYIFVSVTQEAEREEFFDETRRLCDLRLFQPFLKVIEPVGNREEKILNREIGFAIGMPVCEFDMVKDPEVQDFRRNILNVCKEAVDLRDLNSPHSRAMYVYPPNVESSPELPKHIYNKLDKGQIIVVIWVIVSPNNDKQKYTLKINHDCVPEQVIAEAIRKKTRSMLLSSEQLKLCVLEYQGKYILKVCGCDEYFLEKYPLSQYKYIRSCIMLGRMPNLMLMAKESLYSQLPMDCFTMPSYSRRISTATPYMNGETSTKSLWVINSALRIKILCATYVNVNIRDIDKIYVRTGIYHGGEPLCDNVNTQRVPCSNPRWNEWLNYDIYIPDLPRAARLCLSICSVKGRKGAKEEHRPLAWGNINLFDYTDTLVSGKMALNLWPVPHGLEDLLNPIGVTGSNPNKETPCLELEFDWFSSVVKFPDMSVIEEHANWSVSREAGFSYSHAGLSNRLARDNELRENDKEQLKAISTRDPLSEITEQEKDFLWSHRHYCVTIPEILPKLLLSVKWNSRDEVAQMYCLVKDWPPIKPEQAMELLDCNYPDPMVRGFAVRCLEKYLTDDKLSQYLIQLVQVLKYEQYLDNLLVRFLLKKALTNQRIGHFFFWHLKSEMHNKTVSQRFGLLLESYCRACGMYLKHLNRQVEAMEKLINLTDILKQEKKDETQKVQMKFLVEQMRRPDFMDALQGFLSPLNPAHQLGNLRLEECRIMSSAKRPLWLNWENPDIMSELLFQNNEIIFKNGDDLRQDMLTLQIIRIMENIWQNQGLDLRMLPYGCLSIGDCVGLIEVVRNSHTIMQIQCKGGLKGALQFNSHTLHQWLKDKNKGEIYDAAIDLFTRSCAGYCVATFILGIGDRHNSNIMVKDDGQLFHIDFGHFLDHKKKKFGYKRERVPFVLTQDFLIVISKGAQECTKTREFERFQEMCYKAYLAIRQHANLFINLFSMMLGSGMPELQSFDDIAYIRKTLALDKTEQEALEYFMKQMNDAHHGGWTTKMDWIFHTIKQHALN
- protocol-summary: KINOMEscan competition binding
- test-conditions: compound 10.0 µM
Please respond with reported kinase still bound, per cent of control for every item in the list.
Answers are plain numbers, in %.

>>> print(df.to_string())
                              line_notation                       measured_parameter  assay_result
0  O=C1Nc2cc(Br)ccc2/C1=C1/Nc2ccccc2/C1=N\O  kinase still bound, per cent of control           100
1  Cn1cc(C2=C(c3ccc(Cl)cc3Cl)C(=O)NC2=O)c2ccccc21  kinase still bound, per cent of control            86
2  COc1ccc(CNC(=O)Nc2ncc([N+](=O)[O-])s2)cc1  kinase still bound, per cent of control            95

# input for lookup
query: // query kinase still bound, per cent of control value for entry Cc1cnc(-c2cnc(NCCNc3ccc(C#N)cn3)nc2-c2ccc(Cl)cc2Cl)[nH]1
result: 100

* * *

- target-or-test-system: LIMK2 (human)
- protocol-summary: KINOMEscan competition binding
- test-conditions: compound 10.0 µM
measured-parameter: kinase still bound, per cent of control (%)
One number for each entry, in %.

// solved cases for kinase still bound, per cent of control follow
>>> df
                              line_notation                       measured_parameter  readout_units  assay_result
0  Cc1cnc(-c2cnc(NCCNc3ccc(C#N)cn3)nc2-c2ccc(Cl)cc2Cl)[nH]1  kinase still bound, per cent of control              %           100
1  Cn1cc(C2=C(c3ccc(Cl)cc3Cl)C(=O)NC2=O)c2ccccc21  kinase still bound, per cent of control              %            96
2  O=C1Nc2cc(Br)ccc2/C1=C1/Nc2ccccc2/C1=N\O  kinase still bound, per cent of control              %            92

# input for lookup
query: // query kinase still bound, per cent of control value for entry COc1ccc(CNC(=O)Nc2ncc([N+](=O)[O-])s2)cc1
result: 100
